# assayed system: human histamine H3 receptor (Homo sapiens, UniProt Q9Y5N1)
# Sequence (Q9Y5N1 whole entry): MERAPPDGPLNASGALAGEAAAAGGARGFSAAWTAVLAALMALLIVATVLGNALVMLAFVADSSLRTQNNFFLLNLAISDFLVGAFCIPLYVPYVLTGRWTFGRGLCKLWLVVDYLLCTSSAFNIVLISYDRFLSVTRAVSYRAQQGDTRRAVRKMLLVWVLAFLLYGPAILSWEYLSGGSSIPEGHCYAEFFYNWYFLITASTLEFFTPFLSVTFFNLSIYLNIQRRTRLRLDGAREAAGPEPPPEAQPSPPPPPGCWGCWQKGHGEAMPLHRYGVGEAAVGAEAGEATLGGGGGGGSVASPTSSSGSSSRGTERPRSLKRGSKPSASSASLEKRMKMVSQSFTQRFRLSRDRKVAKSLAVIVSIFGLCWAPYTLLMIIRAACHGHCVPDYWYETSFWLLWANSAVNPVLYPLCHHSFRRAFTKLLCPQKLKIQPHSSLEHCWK
property label: Ki (nM)
Reply numerically in nM, unit not repeated.

Input: Form entry - test system: human histamine H3 receptor (Homo sapiens, UniProt Q9Y5N1); read-out: Ki; compound: "C[C@@H]1CCCN1CCc1ccc(-c2ccc3c(c2)CN(C(=O)C2CC2)C3)cc1"
Output: 0.57

* * *

Collected pKi values appear next to each entry.
# assayed system: Histamine H3 Receptor (Rattus norvegicus, UniProt Q9QYN8)
# Sequence (Q9QYN8 whole entry): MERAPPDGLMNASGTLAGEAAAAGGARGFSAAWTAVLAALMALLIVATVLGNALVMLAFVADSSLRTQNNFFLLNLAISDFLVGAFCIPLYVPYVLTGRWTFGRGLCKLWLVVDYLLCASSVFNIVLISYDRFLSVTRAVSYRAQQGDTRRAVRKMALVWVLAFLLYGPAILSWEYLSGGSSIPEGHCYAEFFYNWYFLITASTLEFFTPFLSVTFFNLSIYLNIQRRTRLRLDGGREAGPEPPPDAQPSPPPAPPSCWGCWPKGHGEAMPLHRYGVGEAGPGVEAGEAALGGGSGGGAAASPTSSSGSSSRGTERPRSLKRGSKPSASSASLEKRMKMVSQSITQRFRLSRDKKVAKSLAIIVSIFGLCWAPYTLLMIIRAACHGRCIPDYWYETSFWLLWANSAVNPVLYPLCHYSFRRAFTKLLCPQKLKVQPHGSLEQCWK
# protocol description: [3H] N-alpha-methyl-histamine competitive histamine H3 receptor binding assay
# Design: A crude membrane fraction was prepared from whole rat brain cortex; from tissue; host or cells: whole rat brain cortex, crude membrane fraction
# test conditions: whole rat brain cortex membranes, [3H]-N-α-methylhistamine 1 nM
// pKi is dimensionless: -log10 of concentration (M)

Example entries and their recorded answers appear below.
smiles text	pKi
C[C@@H]1CCCN1CCc1ccc(-c2ccc3c(c2)CN(C(=O)C2CCOCC2)C3)cc1	10.05
C[C@@H]1CCCN1CCc1ccc(-c2ccc3c(c2)CCN(C(=O)CCO)C3)cc1	8.82
COc1ccc(C(=O)N2CCc3cc(-c4ccc(CCN5CCC[C@H]5C)cc4)ccc3C2)cc1	8.96
C[C@@H]1CCCN1CCc1ccc(-c2ccc3c(c2)CN(C(=O)C2CC2)C3)cc1	9.96

Input: Fill blank: measured pKi of the compound "C[C@@H]1CCCN1CCc1ccc(-c2ccc3c(c2)CCN(C(=O)C2CC2)C3)cc1" is ____.
Output: 9.35

Hey, just so you know, these numbers are from patent US20100331312A1.
